The measurements presented in this section are drawn from paper PMC12892976.

System: Candida auris
measurement_notes: MIC broth microdilution (CLSI)
Assay type: cell-based
run_parameters: Candida auris CDC-0384
value_kind: MIC / MEC (µg/mL)
Value expressed in µg/mL; do not type the unit.

O=P(O)(O)C(O)(Cn1ccnc1)P(=O)(O)O [ZOL, zoledronate]    128
CCCCCCCCCCn1cc[n+](CC(O)(P(=O)(O)O)P(=O)(O)O)c1 [10-ZOL, Decyl-zoledronate]    2
C[C@@H](c1ncncc1F)[C@](O)(Cn1cncn1)c1ccc(F)cc1F [VOR]    2

The record that follows has no MIC / MEC shown yet.
For Nc1nc(=O)[nH]cc1F [5FC, 5-flucytosine] the compound record lists MIC / MEC as 2
